biological target: KRAS G12D binding to BRAF (Homo sapiens (Human), UniProt P01116+P62937, G12D); assay: KRAS-BRAF with CYPA (500 nM) interaction assay (TR-FRET), G12D
Sequence (P01116-2 other isoform, or with tags, fused parts or gaps G12D): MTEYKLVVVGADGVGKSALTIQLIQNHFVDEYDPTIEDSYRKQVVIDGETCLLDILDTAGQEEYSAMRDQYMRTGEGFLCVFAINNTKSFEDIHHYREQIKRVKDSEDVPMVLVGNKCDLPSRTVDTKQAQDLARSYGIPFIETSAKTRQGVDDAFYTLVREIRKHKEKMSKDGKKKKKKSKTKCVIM
Sequence (P62937 whole entry): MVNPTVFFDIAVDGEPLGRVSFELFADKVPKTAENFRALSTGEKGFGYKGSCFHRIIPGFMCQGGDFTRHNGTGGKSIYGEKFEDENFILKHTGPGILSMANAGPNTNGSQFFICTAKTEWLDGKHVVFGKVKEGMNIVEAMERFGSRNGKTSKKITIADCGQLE
Examples of compounds with documented IC50 follow.
measurement.name: IC50

>>> reported("CO[C@@H](C)c1ncc(N2CCN(CC(F)(F)F)CC2)cc1-c1c2c3cc(c(F)cc3n1CC(F)(F)F)-c1csc(n1)C[C@H](NC(=O)[C@H](C(C)C)N(C)C(=O)[C@H]1CCN(C(=O)[C@H](F)Cl)C1)C(=O)N1CCC[C@H](N1)C(=O)OCC(C)(C)C2 (atropisomer, axis not shown; (M))")
"> 10 µM"
>>> reported("CCn1c(-c2cc(N3CCOCC3)cnc2[C@H](C)OC)c2c3cc(c(F)cc31)-c1csc(n1)C[C@H](NC(=O)[C@H](C(C)C)N1CC[C@]3(CCN(C(=O)[C@H](F)Cl)C3)C1=O)C(=O)N1CCC[C@H](N1)C(=O)OCC(C)(C)C2 (atropisomer, axis not shown; (M))")
"> 10 µM"
>>> reported("CC(C)[C@@H](C(=O)N[C@H]1Cc2cc(O)cc(c2)-c2ccc3c(C(C)(C)C#N)cn(c3c2)CC(C)(C)COC(=O)[C@@H]2CCCN(N2)C1=O)N1CCC2(CN(C(=O)CCl)C2)C1=O [RM44, reference compound]")
"> 10 µM"
>>> reported("CCn1c(-c2cc(N3CCN(C)CC3)cnc2[C@H](C)OC)c2c3cc(c(F)cc31)-c1csc(n1)C[C@H](NC(=O)[C@H](C(C)C)N(C)C(=O)[C@H]1CCN(C(=O)[C@H](F)Cl)C1)C(=O)N1CCC[C@H](N1)C(=O)OCC(C)(C)C2 (atropisomer, axis not shown; (M))")
"> 10 µM"
>>> reported("CO[C@@H](C)c1ncc(N2CCN(C)CC2)cc1-c1c2c3cc(c(F)cc3n1CC(F)(F)F)-c1csc(n1)C[C@H](NC(=O)[C@H](C(C)C)N1CCCC3(CN(C(=O)[C@H](F)Cl)C3)C1=O)C(=O)N1CCC[C@H](N1)C(=O)OCC(C)(C)C2 (atropisomer, axis not shown; (M))")
"> 10 µM"
>>> reported("CO[C@@H](C)c1ncc(N2CCN(CC(F)(F)F)CC2)cc1-c1c2c3cc(c(F)cc3n1CC(F)(F)F)-c1csc(n1)C[C@H](NC(=O)[C@H](C(C)C)N1CCCC3(CCN(C(=O)[C@H](F)Cl)CC3)C1=O)C(=O)N1CCC[C@H](N1)C(=O)OCC(C)(C)C2 (atropisomer, axis not shown; (M))")
"3.97 µM"
>>> reported("CCn1c(-c2cc(N3CCN(C)CC3)cnc2[C@H](C)OC)c2c3cc(c(F)cc31)-c1csc(n1)C[C@H](NC(=O)[C@H](C(C)C)N1CC[C@@]3(CCN(C(=O)[C@H](F)Cl)C3)C1=O)C(=O)N1CCC[C@H](N1)C(=O)OCC(C)(C)C2 (atropisomer, axis not shown; (M))")
"> 10 µM"
>>> reported("CO[C@@H](C)c1ncc(N2CCN(C)CC2)cc1-c1c2c3cc(c(F)cc3n1CC(F)(F)F)-c1csc(n1)C[C@H](NC(=O)[C@H](C(C)C)N1CC[C@@]3(CCN(C(=O)[C@H](F)Cl)C3)C1=O)C(=O)N1CCC[C@H](N1)C(=O)OCC(C)(C)C2 (atropisomer, axis not shown; (M))")
"4.37 µM"
>>> reported("CCn1c(-c2cc(N3CCN(C)CC3)cnc2[C@H](C)OC)c2c3cc(c(F)cc31)-c1csc(n1)C[C@H](NC(=O)[C@H](C(C)C)N1CC[C@]3(CCN(C(=O)[C@H](F)Cl)C3)C1=O)C(=O)N1CCC[C@H](N1)C(=O)OCC(C)(C)C2 (atropisomer, axis not shown; (M))")
"> 10 µM"
>>> reported("CO[C@@H](C)c1ncc(N2CCN(CC(F)(F)F)CC2)cc1-c1c2c3cc(c(F)cc3n1CC(F)(F)F)-c1csc(n1)C[C@H](NC(=O)[C@H](C(C)C)N1CC[C@@]3(CCN(C(=O)[C@H](F)Cl)C3)C1=O)C(=O)N1CCC[C@H](N1)C(=O)OCC(C)(C)C2 (atropisomer, axis not shown)")
"2.2 µM"
>>> reported("CCn1c(-c2cc(N3CCOCC3)cnc2[C@H](C)OC)c2c3cc(c(F)cc31)-c1csc(n1)C[C@H](NC(=O)[C@H](C(C)C)N(C)C(=O)C1(F)CCN(C(=O)[C@H](F)Cl)CC1)C(=O)N1CCC[C@H](N1)C(=O)OCC(C)(C)C2 (atropisomer, axis not shown; (M))")
"0.303 µM"
>>> reported("CCn1c(-c2cc(N3CCN(CC(F)(F)F)CC3)cnc2[C@H](C)OC)c2c3cc(c(F)cc31)-c1csc(n1)C[C@H](NC(=O)[C@H](C(C)C)N1CCC3(CCN(C(=O)[C@H](F)Cl)CC3)C1=O)C(=O)N1CCC[C@H](N1)C(=O)OCC(C)(C)C2 (atropisomer, axis not shown; (M))")
"> 10 µM"
>>> reported("CO[C@@H](C)c1ncc(N2CCN(C)CC2)cc1-c1c2c3cc(c(F)cc3n1CC(F)(F)F)-c1csc(n1)C[C@H](NC(=O)[C@H](C(C)C)N1CCC[C@]3(CCN(C(=O)[C@H](F)Cl)C3)C1=O)C(=O)N1CCC[C@H](N1)C(=O)OCC(C)(C)C2 (single isomer, unassigned)")
"1.66 µM"
